# assayed-target: RsAGDP1 AGD34
# method: ITC
property: pKd
The value called pKd is obtained by taking minus log10 of the concentration in mol/L.

- ARTKQTARKSTGGKA (monomethyl-lysine at K9) [H3K9me1 peptide (ITC)]: 5.00

Field: next binder
Ask: What value of measured pKd is listed for ARTKQTARKSTGGKA (trimethyl-lysine at K9) [H3K9me3 peptide (ITC)] ?
Result: 4.97
